Numbers sourced from patent US9963448B2.

Biological target: mPAD4 (Mus musculus, UniProt Q9Z183)
Sequence (Q9Z183 whole entry): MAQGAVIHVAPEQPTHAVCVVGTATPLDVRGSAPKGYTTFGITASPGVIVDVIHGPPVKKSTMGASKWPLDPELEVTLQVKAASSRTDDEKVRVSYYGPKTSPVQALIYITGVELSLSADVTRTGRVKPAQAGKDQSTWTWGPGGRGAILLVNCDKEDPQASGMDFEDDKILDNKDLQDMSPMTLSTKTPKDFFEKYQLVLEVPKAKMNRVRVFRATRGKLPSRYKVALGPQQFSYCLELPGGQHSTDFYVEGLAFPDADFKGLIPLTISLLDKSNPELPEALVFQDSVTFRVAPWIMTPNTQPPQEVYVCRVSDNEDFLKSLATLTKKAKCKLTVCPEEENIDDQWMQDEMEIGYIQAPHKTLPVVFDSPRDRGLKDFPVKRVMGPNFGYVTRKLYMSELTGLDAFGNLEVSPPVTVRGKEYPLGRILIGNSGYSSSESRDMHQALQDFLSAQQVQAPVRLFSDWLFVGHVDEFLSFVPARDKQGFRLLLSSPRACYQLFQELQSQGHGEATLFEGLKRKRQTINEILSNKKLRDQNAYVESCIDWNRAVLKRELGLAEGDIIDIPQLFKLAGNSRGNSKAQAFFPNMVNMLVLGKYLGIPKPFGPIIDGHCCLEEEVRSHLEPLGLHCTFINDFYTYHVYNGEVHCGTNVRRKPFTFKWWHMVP
Assay: mPAD4 RFMS PAD4 inhibition assay
Assay type: biochemical
Conditions: mPAD4, RFMS readout; read-out: mPAD4 RFMS IC50
Property Label: IC50

Cn1c(-c2cc3cccnc3n2CC2CC2)nc2cc(C(=O)N3C[C@@H](N)C[C@H](F)C3)cc(OCC(F)F)c21
< 1000 nM
CCn1c(-c2nc3cc(C(=O)N4C[C@H]5CC[C@@H]4[C@@H]5N)cc(OC)c3n2[C@H]2C[C@@H](OC)C2)cc2cccnc21
1000 to 5000 nM

Asked: Value wanted: IC50 (mPAD4 (Mus musculus, UniProt Q9Z183)) of entry COc1cc(C(=O)N2C[C@H]3CC[C@@H]2[C@@H]3N)cc2nc(-c3cc4ccc(C)nc4n3CC3CC3)n(C)c12
Given back: < 1000 nM
